# targetUnderTest: sodium-proton exchanger of subtype 3 (NHE3) (Homo sapiens, UniProt P48764)
# Construct: expressed in transfected cells
# assayNotes: Recovery of intracellular pH (pHi) after acidification in LAP1 cells stably expressing NHE3 (BCECF fluorescence, FLIPR)
# Assay type: cell-based
# experimentalSetup: LAP1 cells stably expressing NHE3; pH recovery after acidification; range 1 is % inhibition at 10 μM; read-out: Activity range (inhibitory effect on NHE3)
pIC50: −log10 of the molar value.
measuredQuantity: pIC50

Worked examples, 6 compounds total:
Note pIC50 for the compound shown: CC(=O)Nc1cccc(O[C@H]2c3cc(Cl)cc(Cl)c3C[C@@H]2N2CCN(C)CC2)c1 [Example 697]
5.00 to 6.00

Note pIC50 for the compound shown: NS(=O)(=O)c1ccc(OC2c3ccccc3CC2N2CC[C@@H](O)C2)cc1 (mixture of isomers) [Example 527]
5.00 to 6.00

Note pIC50 for the compound shown: N[C@@H]1CCCN([C@H]2CCc3ccccc3[C@@H]2Oc2cccc3ccc(Cl)nc23)C1 (racemic) [Example 41]
5.00 to 6.00

Note pIC50 for the compound shown: CN(C)C(=O)Cc1ccc(O[C@H]2c3ccccc3C[C@@H]2N2CCCC2)cc1 (racemic) [Example 634]
5.00 to 6.00

Note pIC50 for the compound shown: O=C(O)COC(=O)Nc1ccc(O[C@H]2c3cc(Cl)cc(Cl)c3C[C@@H]2N2CC[C@@H](O)C2)c(Cl)c1 [Example 236]
> 6.00

Note pIC50 for the compound shown: O=S1(=O)CCCN1c1cccc(O[C@H]2c3cc(Cl)cc(Cl)c3C[C@@H]2N2CC[C@@H](O)C2)c1 [Example 123]
5.00 to 6.00

Note: attention shifts to another entry.
Note pIC50 for the compound shown: CS(=O)(=O)c1ccc(O[C@H]2c3c(Cl)cc(Cl)cc3C[C@@H]2N2CCNCC2)cc1 (racemic) [Example 287]
> 6.00

====

# targetUnderTest: sodium-proton exchanger of subtype 3 (NHE3) (Homo sapiens)
# Construct: expressed in transfected cells
# Sequence (P48764 26-834): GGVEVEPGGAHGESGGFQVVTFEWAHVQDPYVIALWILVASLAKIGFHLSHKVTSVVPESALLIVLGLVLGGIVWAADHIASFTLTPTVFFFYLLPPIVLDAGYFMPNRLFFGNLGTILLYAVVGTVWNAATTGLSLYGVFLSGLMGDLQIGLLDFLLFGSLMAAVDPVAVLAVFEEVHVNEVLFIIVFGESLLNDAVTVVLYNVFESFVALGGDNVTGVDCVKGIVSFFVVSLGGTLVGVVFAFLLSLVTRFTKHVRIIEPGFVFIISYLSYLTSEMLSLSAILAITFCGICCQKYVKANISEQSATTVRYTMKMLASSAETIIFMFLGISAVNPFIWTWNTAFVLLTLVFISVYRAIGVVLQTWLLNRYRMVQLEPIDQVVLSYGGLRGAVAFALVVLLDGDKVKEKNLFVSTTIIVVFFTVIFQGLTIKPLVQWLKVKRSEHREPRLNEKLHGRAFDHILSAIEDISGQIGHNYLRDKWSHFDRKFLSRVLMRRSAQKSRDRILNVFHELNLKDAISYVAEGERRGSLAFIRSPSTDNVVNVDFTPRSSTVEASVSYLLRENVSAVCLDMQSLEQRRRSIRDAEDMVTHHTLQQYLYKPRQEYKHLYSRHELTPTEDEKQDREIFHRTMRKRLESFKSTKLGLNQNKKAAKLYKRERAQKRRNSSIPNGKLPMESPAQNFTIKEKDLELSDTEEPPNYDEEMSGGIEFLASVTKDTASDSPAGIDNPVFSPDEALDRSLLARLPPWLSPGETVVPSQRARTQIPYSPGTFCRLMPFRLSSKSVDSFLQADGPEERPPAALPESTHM
# assayNotes: Recovery of intracellular pH (pHi) after acidification in LAP1 cells stably expressing NHE3 (BCECF fluorescence, FLIPR)
# Format: cell-based
# experimentalSetup: LAP1 cells stably expressing NHE3; pH recovery after acidification; range 1 is % inhibition at 10 μM; read-out: Activity range (inhibitory effect on NHE3)
pIC50: −log10 of the molar value.
measuredQuantity: pIC50

Worked examples, 2 molecules total:
Note pIC50 for the molecule shown: NS(=O)(=O)c1ccc(OC2c3ccccc3CC2N2CCCC2)c(Cl)c1Cl (racemic)
> 6.00

Note pIC50 for the molecule shown: O=C1CCC(=O)N1c1ccc(O[C@H]2c3cc(Cl)cc(F)c3C[C@@H]2NC2CCCC2)c(F)c1
5.00 to 6.00

# map each molecule to its pIC50
1. CS(=O)(=O)c1ccc(O[C@H]2c3cc(Cl)cc(Cl)c3C[C@@H]2CN2CCCC2)cc1 (racemic)
2. Cc1nn(C)c(C)c1-c1ccc(O[C@H]2c3cc(Cl)ccc3C[C@@H]2N2CC[C@@H](O)C2)cc1
3. Cc1cc(O[C@H]2c3ccccc3C[C@@H]2N2CCCC2)ccc1S(C)(=O)=O (racemic)

["5.00 to 6.00", "5.00 to 6.00", "5.00 to 6.00"]

# map each molecule to its pIC50
1. CS(=O)(=O)c1nccn1-c1ccc(O[C@H]2c3cc(Cl)cc(Cl)c3C[C@@H]2N2CC[C@@H](O)C2)cc1
2. O=C1CCCN1c1ccc(Cl)c(O[C@H]2c3cc(Cl)cc(F)c3C[C@@H]2N2CC[C@@H](O)C2)c1

> 6.00
> 6.00

====

# targetUnderTest: sodium-proton exchanger of subtype 3 (NHE3) (Homo sapiens)
# Construct: expressed in transfected cells
# assayNotes: Recovery of intracellular pH (pHi) after acidification in LAP1 cells stably expressing NHE3 (BCECF fluorescence, FLIPR)
# Format: cell-based
# experimentalSetup: LAP1 cells stably expressing NHE3; pH recovery after acidification; range 1 is % inhibition at 10 μM; read-out: Activity range (inhibitory effect on NHE3)
measuredQuantity: IC50

Worked examples, 3 compounds total:
Note IC50 for the compound shown: Cc1noc(C)c1-c1ccc(O[C@H]2c3ccccc3C[C@@H]2N2CCCC2)cc1
< 1000 nM

Note IC50 for the compound shown: CS(=O)(=O)c1ccc(O[C@H]2c3ccccc3C[C@@H]2NCC2CCCC2)cc1 (racemic)
1000 to 10000 nM

Note IC50 for the compound shown: N#Cc1cc(Cl)ccc1O[C@@H]1c2ccccc2C[C@H]1N1CCC(CN)CC1 (racemic)
1000 to 10000 nM

# map each compound to its IC50
1. O=S(=O)(NCCC(F)(F)F)c1ccc(O[C@H]2c3ccccc3C[C@@H]2N2CCCC2)cc1 (racemic)
2. Cc1nnc(C)n1-c1ccc(O[C@H]2c3cc(Cl)cc(F)c3C[C@@H]2NC2CCCC2)c(F)c1
3. Cc1nnc(C)n1-c1ccc(O[C@H]2c3cc(Cl)ccc3C[C@@H]2N2CCS(=O)(=O)CC2)c(Cl)c1
4. CC(=O)Nc1cccc(O[C@H]2c3cc(Cl)cc(Cl)c3C[C@@H]2N2CCNCC2)c1 (racemic) [Example 647]

["1000 to 10000 nM", "1000 to 10000 nM", "1000 to 10000 nM", "1000 to 10000 nM"]

====

Would you kindly list IC50 for each of these compounds?
# targetUnderTest: sodium-proton exchanger of subtype 3 (NHE3) (Homo sapiens, UniProt P48764)
# Construct: expressed in transfected cells
# Sequence (P48764 26-834): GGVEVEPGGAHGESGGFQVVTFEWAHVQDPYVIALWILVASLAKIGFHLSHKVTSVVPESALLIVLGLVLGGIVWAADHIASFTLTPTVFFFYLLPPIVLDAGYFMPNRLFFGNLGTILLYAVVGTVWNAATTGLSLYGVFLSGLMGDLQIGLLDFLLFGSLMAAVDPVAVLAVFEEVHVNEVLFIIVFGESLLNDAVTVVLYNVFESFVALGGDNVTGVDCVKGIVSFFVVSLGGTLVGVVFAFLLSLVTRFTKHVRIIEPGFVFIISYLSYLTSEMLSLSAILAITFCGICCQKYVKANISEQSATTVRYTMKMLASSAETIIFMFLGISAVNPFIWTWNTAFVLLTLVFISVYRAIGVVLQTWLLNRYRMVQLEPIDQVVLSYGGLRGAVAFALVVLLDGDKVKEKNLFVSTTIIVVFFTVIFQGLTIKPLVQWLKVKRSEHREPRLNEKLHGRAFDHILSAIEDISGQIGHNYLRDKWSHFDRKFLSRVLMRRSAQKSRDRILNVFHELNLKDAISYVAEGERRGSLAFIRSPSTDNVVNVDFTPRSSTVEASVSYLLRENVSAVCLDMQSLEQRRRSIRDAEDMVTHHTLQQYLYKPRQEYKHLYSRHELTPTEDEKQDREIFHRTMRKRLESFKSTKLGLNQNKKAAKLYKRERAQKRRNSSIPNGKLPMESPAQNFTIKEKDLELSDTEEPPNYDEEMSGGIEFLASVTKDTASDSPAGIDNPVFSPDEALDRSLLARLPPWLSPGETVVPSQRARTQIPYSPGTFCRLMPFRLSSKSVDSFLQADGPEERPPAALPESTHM
# assayNotes: Recovery of intracellular pH (pHi) after acidification in LAP1 cells stably expressing NHE3 (BCECF fluorescence, FLIPR)
# Format: cell-based
# experimentalSetup: LAP1 cells stably expressing NHE3; pH recovery after acidification; range 1 is % inhibition at 10 μM; read-out: Activity range (inhibitory effect on NHE3)

Worked examples, 5 compounds total:
Note IC50 for the compound shown: CS(=O)(=O)c1ccc(O[C@H]2c3cc(Cl)cc(Cl)c3C[C@@H]2N2CCCNCC2)cc1 (racemic) [Example 277]
< 1000 nM

Note IC50 for the compound shown: Cc1nnc(C)n1-c1ccc(O[C@H]2c3cc(Cl)cc(Cl)c3C[C@@H]2N2CC[C@H](O)C2)cc1 [Example 206]
< 1000 nM

Note IC50 for the compound shown: CS(=O)(=O)c1ccc(O[C@H]2c3ccccc3CC[C@@H]2N2CCC[C@H](N)C2)cc1 (racemic) [Example 182]
1000 to 10000 nM

Note IC50 for the compound shown: COCCc1ccc(O[C@@H]2c3ccccc3C[C@H]2N2CCC(CN)C2)cc1 (mixture of isomers) [Example 598]
1000 to 10000 nM

Note IC50 for the compound shown: CC(=O)Nc1cccc(O[C@@H]2c3cc(Cl)cc(F)c3C[C@H]2N2CCCC2)c1 (racemic) [Example 660]
1000 to 10000 nM

# map each compound to its IC50
1. CS(=O)(=O)c1ccc(O[C@H]2c3cc(Cl)cc(Cl)c3C[C@@H]2N2CCCC(NCCO)C2)cc1 (stereo partly drawn) [Example 379]
2. NS(=O)(=O)c1ccc(O[C@H]2c3ccccc3C[C@@H]2N2CCCC2)c(Cl)c1 (racemic) [Example 444]

["< 1000 nM", "< 1000 nM"]

# map each compound to its IC50
1. NC(=O)Cc1c[nH]c2ccc(O[C@@H]3c4ccccc4C[C@H]3N3CCC(N)C3)cc12 (mixture of isomers) [Example 387]
2. CC(=O)Nc1cccc(O[C@H]2c3ccccc3C[C@@H]2N2CCCCC2)c1 [Example 663]

1000 to 10000 nM
< 1000 nM

Numbers sourced from patent US8822449B2.
